Every entry's value here was drawn from paper PMC3644210.

Target: Kv1.1 (Homo sapiens, UniProt Q09470)
Sequence (Q09470 whole entry): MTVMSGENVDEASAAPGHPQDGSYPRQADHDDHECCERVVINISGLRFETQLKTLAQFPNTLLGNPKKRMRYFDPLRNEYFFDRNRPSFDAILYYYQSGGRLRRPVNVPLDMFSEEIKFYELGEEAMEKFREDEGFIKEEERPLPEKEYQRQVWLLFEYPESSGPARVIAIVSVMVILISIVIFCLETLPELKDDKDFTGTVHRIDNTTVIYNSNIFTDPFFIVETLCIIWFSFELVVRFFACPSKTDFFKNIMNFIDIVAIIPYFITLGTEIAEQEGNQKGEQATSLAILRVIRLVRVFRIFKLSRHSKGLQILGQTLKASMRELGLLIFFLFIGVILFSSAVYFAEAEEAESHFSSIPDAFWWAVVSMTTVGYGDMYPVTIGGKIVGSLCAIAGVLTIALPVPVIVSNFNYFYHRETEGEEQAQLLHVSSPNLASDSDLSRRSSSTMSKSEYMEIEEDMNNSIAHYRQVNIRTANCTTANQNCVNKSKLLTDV
Details: read-out: IC50 of TEA on Kv1.1; Kv1.1; source of the IC50 not stated
ATTRIBUTE MEASURED: IC50 (µM)
Numbers only, in µM.

Value lookup for IC50; key = CC[N+](CC)(CC)CC [TEA, Tetraethylammonium]
400
